- Test system: 4T1 murine breast cancer cells
- Experiment summary: Example S: in vitro anticancer screen, 4T1 cells, Wst1
- Format: cell-based, mouse
- Experimental context: Mus musculus, 4T1, 18 h, 5 μM, 18 hr, Wst1; read-out: 4T1 5 μM, percent of cancer cell survival relative to vehicle treated cells
Readout type: viability at 5 µM (%)
Provide only the numeric value, understood in %.

**Q:** Which value of viability at 5 µM has been reported for `CCCCOCCCCCCCCCCNc1ccnc2ccccc12` in the records?
**A:** 29.5

**Q:** Which value of viability at 5 µM has been reported for `CCCCCCOc1ccc(OCCCNc2ccnc3ccccc23)cc1` in the records?
**A:** 29.1

**Q:** Which value of viability at 5 µM has been reported for `COc1ccc(Nc2ccnc3ccccc23)cc1` in the records?
**A:** 126

**Q:** Which value of viability at 5 µM has been reported for CCCCCCOC(=O)c1ccc(Nc2ccnc3ccccc23)cc1 [AP, Hexyl 4-(quinolin-4-ylamino)benzoate] in the records?
**A:** 246

**Q:** Which value of viability at 5 µM has been reported for `CCCCCCOc1ccc(OCCNc2ccnc3ccccc23)cc1` in the records?
**A:** 220

**Q:** Which value of viability at 5 µM has been reported for `CCCCCCOc1cccc(OCCCCNc2ccnc3ccccc23)c1` in the records?
**A:** 16.9

**Q:** Which value of viability at 5 µM has been reported for `COCCCCCNc1ccnc2ccccc12` in the records?
**A:** 221

**Q:** Which value of viability at 5 µM has been reported for `CCCCOCCCCCCCCCCn1cnc2cnc3ccccc3c21` in the records?
**A:** 15.6
